- measurement description: In vivo pharmacokinetic study in mice, oral ibrutinib (plasma, LC-MS/MS)
- assay context: female, FVB, mouse, plasma, po, 10 mg/kg, Ibrutinib AUC(0-last), female wild-type FVB mice; ibrutinib 10 mg/kg oral; cotreatment PEG400; mean (SE)
attribute measured: AUC(0-t) (ng·h/mL)
The answer is to be given in ng·h/mL; state only the numeric part.

Ask: Provide AUC(0-t) value for the following compound: "C=CC(=O)N1CCC[C@@H](n2nc(-c3ccc(Oc4ccccc4)cc3)c3c(N)ncnc32)C1"
Result: 768

====

- measurement description: In vivo pharmacokinetic study in mice, oral ibrutinib (plasma, LC-MS/MS)
- assay context: female, FVB, mouse, plasma, po, 30 mg/kg, Ibrutinib Cmax, female wild-type FVB mice; ibrutinib 30 mg/kg oral; no cotreatment; mean (SE)
attribute measured: Cmax (ng/mL)
The answer is to be given in ng/mL; state only the numeric part.

Ask: Provide Cmax value for the following compound: "C=CC(=O)N1CCC[C@@H](n2nc(-c3ccc(Oc4ccccc4)cc3)c3c(N)ncnc32)C1"
Result: 554

====

- measurement description: In vivo pharmacokinetic study in mice, oral ibrutinib (plasma, LC-MS/MS)
- assay context: female, FVB, mouse, plasma, po, 10 mg/kg, Ibrutinib AUC(0-last), female CYP3A-/- mice; ibrutinib 10 mg/kg oral; no cotreatment; mean (SE)
attribute measured: AUC(0-t)

Ask: Provide AUC(0-t) value for the following compound: "C=CC(=O)N1CCC[C@@H](n2nc(-c3ccc(Oc4ccccc4)cc3)c3c(N)ncnc32)C1"
Result: 2350 ng·h/mL

====

- measurement description: In vivo pharmacokinetic study in mice, oral ibrutinib (plasma, LC-MS/MS)
- assay context: male, C57BL/6, mouse, plasma, po, 10 mg/kg, Ibrutinib Cmax, male OATP2B1(-/-) mice; ibrutinib 10 mg/kg PO; no co-treatment; mean (SD)
attribute measured: Cmax (ng/mL)
The answer is to be given in ng/mL; state only the numeric part.

Ask: Provide Cmax value for the following compound: "C=CC(=O)N1CCC[C@@H](n2nc(-c3ccc(Oc4ccccc4)cc3)c3c(N)ncnc32)C1"
Result: 1630

====

- measurement description: In vivo pharmacokinetic study in mice, oral ibrutinib (plasma, LC-MS/MS)
- assay context: female, FVB, mouse, plasma, po, 10 mg/kg, female CYP3A-/- mice; ibrutinib 10 mg/kg oral; no cotreatment
attribute measured: bioavailability (%)
The answer is to be given in %; state only the numeric part.

Ask: Provide bioavailability value for the following compound: "C=CC(=O)N1CCC[C@@H](n2nc(-c3ccc(Oc4ccccc4)cc3)c3c(N)ncnc32)C1"
Result: 45

====

- measurement description: In vivo pharmacokinetic study in mice, oral ibrutinib (plasma, LC-MS/MS)
- assay context: female, FVB, mouse, plasma, po, 10 mg/kg, Ibrutinib AUC(0-last), female wild-type FVB mice; ibrutinib 10 mg/kg oral; cotreatment ketoconazole 50 mg/kg; mean (SE)
attribute measured: AUC(0-t) (ng·h/mL)
The answer is to be given in ng·h/mL; state only the numeric part.

Ask: Provide AUC(0-t) value for the following molecule: "C=CC(=O)N1CCC[C@@H](n2nc(-c3ccc(Oc4ccccc4)cc3)c3c(N)ncnc32)C1"
Result: 8320

====

- measurement description: In vivo pharmacokinetic study in mice, intravenous ibrutinib (plasma)
- assay context: female, FVB, mouse, plasma, iv, 1 mg/kg, Ibrutinib AUC(0-last), female CYP3A(-/-) mice; ibrutinib 1 mg/kg IV; co-treatment corn oil; mean (SD)
attribute measured: AUC(0-t) (ng·h/mL)
The answer is to be given in ng·h/mL; state only the numeric part.

Ask: Provide AUC(0-t) value for the following molecule: "C=CC(=O)N1CCC[C@@H](n2nc(-c3ccc(Oc4ccccc4)cc3)c3c(N)ncnc32)C1"
Result: 1170

====

- measurement description: In vivo pharmacokinetic study in mice, oral ibrutinib (plasma, LC-MS/MS)
- assay context: female, FVB, mouse, plasma, po, 10 mg/kg, Ibrutinib AUC(0-last), female wild-type FVB mice; ibrutinib 10 mg/kg oral; cotreatment cobicistat 30 mg/kg; steady-state; mean (SE)
attribute measured: AUC(0-t) (ng·h/mL)
The answer is to be given in ng·h/mL; state only the numeric part.

Ask: Provide AUC(0-t) value for the following compound: "C=CC(=O)N1CCC[C@@H](n2nc(-c3ccc(Oc4ccccc4)cc3)c3c(N)ncnc32)C1"
Result: 2250

====

- measurement description: In vivo pharmacokinetic study in mice, intravenous ibrutinib (plasma)
- assay context: female, FVB, mouse, plasma, iv, 1 mg/kg, Ibrutinib AUC(0-last), female CYP3A(-/-) mice; ibrutinib 1 mg/kg IV; co-treatment cobicistat; mean (SD)
attribute measured: AUC(0-t) (ng·h/mL)
The answer is to be given in ng·h/mL; state only the numeric part.

Ask: Provide AUC(0-t) value for the following molecule: "C=CC(=O)N1CCC[C@@H](n2nc(-c3ccc(Oc4ccccc4)cc3)c3c(N)ncnc32)C1"
Result: 895

====

- measurement description: In vivo pharmacokinetic study in mice, oral ibrutinib (plasma, LC-MS/MS)
- assay context: female, FVB, mouse, plasma, po, 10 mg/kg, female wild-type FVB mice; ibrutinib 10 mg/kg oral single dose; cotreatment corn oil
attribute measured: bioavailability (%)
The answer is to be given in %; state only the numeric part.

Ask: Provide bioavailability value for the following compound: C=CC(=O)N1CCC[C@@H](n2nc(-c3ccc(Oc4ccccc4)cc3)c3c(N)ncnc32)C1 [Ibrutinib]
Result: 5.5

====

- measurement description: In vivo pharmacokinetic study in mice, oral ibrutinib (plasma, LC-MS/MS)
- assay context: female, FVB, mouse, plasma, po, 10 mg/kg, female wild-type FVB mice; ibrutinib 10 mg/kg oral; no cotreatment
attribute measured: bioavailability (%)
The answer is to be given in %; state only the numeric part.

Ask: Provide bioavailability value for the following compound: "C=CC(=O)N1CCC[C@@H](n2nc(-c3ccc(Oc4ccccc4)cc3)c3c(N)ncnc32)C1"
Result: 5.8

====

- measurement description: In vivo pharmacokinetic study in mice, oral ibrutinib (plasma, LC-MS/MS)
- assay context: male, FVB, mouse, plasma, po, 10 mg/kg, Ibrutinib AUC(0-last), male wild-type FVB mice; ibrutinib 10 mg/kg PO; co-treatment cobicistat; mean (SD)
attribute measured: AUC(0-t) (ng·h/mL)
The answer is to be given in ng·h/mL; state only the numeric part.

Ask: Provide AUC(0-t) value for the following compound: "C=CC(=O)N1CCC[C@@H](n2nc(-c3ccc(Oc4ccccc4)cc3)c3c(N)ncnc32)C1"
Result: 4340

====

- measurement description: In vivo pharmacokinetic study in mice, oral ibrutinib (plasma, LC-MS/MS)
- assay context: female, FVB, mouse, plasma, po, 10 mg/kg, Ibrutinib Cmax, female wild-type FVB mice; ibrutinib 10 mg/kg oral single dose; cotreatment corn oil; mean (SE)
attribute measured: Cmax (ng/mL)
The answer is to be given in ng/mL; state only the numeric part.

Ask: Provide Cmax value for the following molecule: C=CC(=O)N1CCC[C@@H](n2nc(-c3ccc(Oc4ccccc4)cc3)c3c(N)ncnc32)C1 [Ibrutinib]
Result: 292
